MEASURED ON: UniProt:P16177
EXPERIMENT DESCRIPTION: Concentration required to inhibit the specific binding of [125I]BH-ELE to Neurokinin-3 (NK-3) receptor in rat brain synaptosomes
MEASURED METRIC: IC50 (nM)
Express the result in nM but write the number alone.

Write down the reported IC50 of CSCC[C@H](NC(=O)[C@H](CC(C)C)NC(=O)CNC(=O)[C@H](CCc1ccccc1)NC(=O)[C@H](Cc1ccccc1)NC(=O)[C@H](CCC(N)=O)NC(=O)[C@H](CCC(N)=O)NC(=O)[C@@H]1CCCN1C(=O)[C@H](CCCCN)NC(=O)[C@@H]1CCCN1C(=O)[C@@H](N)CCCN=C(N)N)C(N)=O , test system: UniProt:P16177. 1900

Checklist item: IC50 tested on UniProt:P16177, entry CSCC[C@H](NC(=O)[C@H](CC(C)C)NC(=O)CNC(=O)[C@@H]1Cc2ccccc2CN1C(=O)[C@H](Cc1ccccc1)NC(=O)[C@H](CCC(N)=O)NC(=O)[C@H](CCC(N)=O)NC(=O)[C@@H]1CCCN1C(=O)[C@H](CCCCN)NC(=O)[C@@H]1CCCN1C(=O)[C@@H](N)CCCN=C(N)N)C(N)=O , value? 20000

Form: Entry = CSCC[C@H](NC(=O)[C@H](CC(C)C)NC(=O)CNC(=O)[C@@H](NC(=O)[C@H](Cc1ccccc1)NC(=O)[C@H](CCC(N)=O)NC(=O)[C@H](CCC(N)=O)NC(=O)[C@@H]1CCCN1C(=O)[C@H](CCCCN)NC(=O)[C@@H]1CCCN1C(=O)[C@@H](N)CCCN=C(N)N)C(C)(C)C)C(N)=O | System = UniProt:P16177 | IC50 = ____ 65

What measured IC50 is associated with CSCC[C@H](NC(=O)[C@H](CC(C)C)NC(=O)CNC(=O)[C@H](Cc1ccccc1)NC(=O)[C@@H]1Cc2ccccc2CN1C(=O)[C@H](CCC(N)=O)NC(=O)[C@H](CCC(N)=O)NC(=O)[C@@H]1CCCN1C(=O)[C@H](CCCCN)NC(=O)[C@@H]1CCCN1C(=O)[C@@H](N)CCCN=C(N)N)C(N)=O on UniProt:P16177? 1900

* * *

Consider the following compounds; for each one, report its IC50.
MEASURED ON: Neuromedin-K receptor (Rattus norvegicus, UniProt P16177)
Sequence (P16177 whole entry): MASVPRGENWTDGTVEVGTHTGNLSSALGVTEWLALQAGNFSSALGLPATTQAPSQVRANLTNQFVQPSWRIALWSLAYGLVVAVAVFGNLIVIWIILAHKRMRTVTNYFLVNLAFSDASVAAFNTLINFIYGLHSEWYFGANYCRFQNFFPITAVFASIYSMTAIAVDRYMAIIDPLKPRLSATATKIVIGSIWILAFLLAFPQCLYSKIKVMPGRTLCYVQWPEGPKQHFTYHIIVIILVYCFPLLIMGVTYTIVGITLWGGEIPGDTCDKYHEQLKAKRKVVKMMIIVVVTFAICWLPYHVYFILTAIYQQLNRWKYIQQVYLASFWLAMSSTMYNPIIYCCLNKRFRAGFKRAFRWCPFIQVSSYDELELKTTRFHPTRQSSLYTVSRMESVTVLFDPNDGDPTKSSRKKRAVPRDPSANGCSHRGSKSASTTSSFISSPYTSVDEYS
EXPERIMENT DESCRIPTION: Concentration required to inhibit the specific binding of [125I]BH-ELE to Neurokinin-3 (NK-3) receptor in rat brain synaptosomes
Supply the numeric figure in nM, leaving out any unit text.

Report IC50 for CSCC[C@H](NC(=O)[C@H](CC(C)C)NC(=O)CNC(=O)[C@H](Cc1ccccc1)NC(=O)[C@H](Cc1ccccc1)NC(=O)[C@H](CCC(N)=O)NC(=O)[C@H](CCC(N)=O)NC(=O)[C@@H]1CCCN1C(=O)[C@H](CCCCN)NC(=O)[C@@H]1CCCN1C(=O)[C@@H](N)CCCN=C(N)N)C(N)=O [SUBSTANCE P] tested on Neuromedin-K receptor (Rattus norvegicus, UniProt P16177). 130

# value lookup — system Neuromedin-K receptor (Rattus norvegicus, UniProt P16177), readout IC50, item CSCC[C@H](NC(=O)[C@H](CC(C)C)NC(=O)CNC(=O)[C@@H](NC(=O)[C@H](Cc1ccccc1)NC(=O)[C@H](CCC(N)=O)NC(=O)[C@H](CCC(N)=O)NC(=O)[C@@H]1CCCN1C(=O)[C@H](CCCCN)NC(=O)[C@@H]1CCCN1C(=O)[C@@H](N)CCCNC(=N)N)C(c1ccccc1)c1ccccc1)C(N)=O 2200

* * *

Provide the recorded pIC50 for the entries that follow.
MEASURED ON: Neuromedin-K receptor (Rattus norvegicus, UniProt P16177)
EXPERIMENT DESCRIPTION: Concentration required to inhibit the specific binding of [125I]BH-ELE to Neurokinin-3 (NK-3) receptor in rat brain synaptosomes
As a rule, pIC50 stands for the negative log10 of the concentration, concentration in M.

Lab note: need pIC50 for CSCC[C@H](NC(=O)[C@H](CC(C)C)NC(=O)CNC(=O)[C@@H](NC(=O)[C@H](Cc1ccccc1)NC(=O)[C@H](CCC(N)=O)NC(=O)[C@H](CCC(N)=O)NC(=O)[C@@H]1CCCN1C(=O)[C@H](CCCCN)NC(=O)[C@@H]1CCCN1C(=O)[C@@H](N)CCCN=C(N)N)C(C)(C)S(C)(=O)=O)C(N)=O on Neuromedin-K receptor (Rattus norvegicus, UniProt P16177), anyone have it? 6.72

Please state recorded pIC50 (tested on Neuromedin-K receptor (Rattus norvegicus, UniProt P16177)) of CSCC[C@H](NC(=O)[C@H](CC(C)C)NC(=O)CNC(=O)[C@H](CCSC)NC(=O)[C@H](Cc1ccccc1)NC(=O)[C@H](CCC(N)=O)NC(=O)[C@H](CCC(N)=O)NC(=O)[C@@H]1CCCN1C(=O)[C@H](CCCCN)NC(=O)[C@@H]1CCCN1C(=O)[C@@H](N)CCCNC(=N)N)C(N)=O 5.92

* * *

Starred links: 1 amine or outer side, 2 acyl side, 3 side chain; linkers in the order of their positions; H or OH if unused. Non-standard residues stand in square brackets, D forms with d. Residues, ends and D or L forms follow the SMILES beside them. Gly(9-fluorenyl) = N[C@H](C(=O)O)C1c2ccccc2-c2ccccc21; X1 = O=C([C@@H](N[*:1])C1CCc2ccccc21)[*:2]; Dip = N[C@H](C(=O)O)C(c1ccccc1)c1ccccc1
MEASURED METRIC: pIC50
pIC50 (log units): -log10 of the concentration in mol/L.

Provide value of pIC50 for this record tested with Substance-K receptor (Rattus norvegicus, UniProt P16610): CSCC[C@H](NC(=O)[C@H](CC(C)C)NC(=O)CNC(=O)[C@@H](NC(=O)[C@H](Cc1ccccc1)NC(=O)[C@H](CCC(N)=O)NC(=O)[C@H](CCC(N)=O)NC(=O)[C@@H]1CCCN1C(=O)[C@H](CCCCN)NC(=O)[C@@H]1CCCN1C(=O)[C@@H](N)CCCN=C(N)N)C(C)(C)C)C(N)=O 8.05

Checklist item: pIC50 tested on Substance-K receptor (Rattus norvegicus, UniProt P16610), entry CSCC[C@H](NC(=O)[C@H](CC(C)C)NC(=O)CNC(=O)[C@@H]1Cc2ccccc2CN1C(=O)[C@H](Cc1ccccc1)NC(=O)[C@H](CCC(N)=O)NC(=O)[C@H](CCC(N)=O)NC(=O)[C@@H]1CCCN1C(=O)[C@H](CCCCN)NC(=O)[C@@H]1CCCN1C(=O)[C@@H](N)CCCN=C(N)N)C(N)=O , value? 4.74

Under Substance-K receptor (Rattus norvegicus, UniProt P16610): pIC50 value of CSCC[C@H](NC(=O)[C@H](CC(C)C)NC(=O)[C@@H]1CCCN1C(=O)[C@@H](NC(=O)[C@H](Cc1ccccc1)NC(=O)[C@H](CCC(N)=O)NC(=O)[C@H](CCC(N)=O)NC(=O)[C@@H]1CCCN1C(=O)[C@H](CCCCN)NC(=O)[C@@H]1CCCN1C(=O)[C@@H](N)CCCN=C(N)N)C(c1ccccc1)c1ccccc1)C(N)=O (H-RPKPQQF[Dip]PLM-NH2) ? 5.22

I'm curious: which pIC50 was measured for CSCC[C@H](NC(=O)[C@H](CC(C)C)NC(=O)CNC(=O)[C@@H](NC(=O)[C@H](Cc1ccccc1)NC(=O)[C@H](CCC(N)=O)NC(=O)[C@H](CCC(N)=O)NC(=O)[C@@H]1CCCN1C(=O)[C@H](CCCCN)NC(=O)[C@@H]1CCCN1C(=O)[C@@H](N)CCCN=C(N)N)[C@@H]1CCc2cc3ccccc3cc21)C(N)=O tested on Substance-K receptor (Rattus norvegicus, UniProt P16610)? 7.24

Kindly state the measured pIC50 obtained for CSCC[C@H](NC(=O)[C@H](CC(C)C)NC(=O)CNC(=O)[C@H](Cc1ccccc1)NC(=O)[C@@H](NC(=O)[C@H](CCC(N)=O)NC(=O)[C@H](CCC(N)=O)NC(=O)[C@@H]1CCCN1C(=O)[C@H](CCCCN)NC(=O)[C@@H]1CCCN1C(=O)[C@@H](N)CCCN=C(N)N)C1Cc2ccccc2C1)C(N)=O with Substance-K receptor (Rattus norvegicus, UniProt P16610). 5.77

For Substance-K receptor (Rattus norvegicus, UniProt P16610), provide pIC50 of CSCC[C@H](NC(=O)[C@H](CC(C)C)NC(=O)CNC(=O)[C@H](CCc1ccccc1)NC(=O)[C@H](Cc1ccccc1)NC(=O)[C@H](CCC(N)=O)NC(=O)[C@H](CCC(N)=O)NC(=O)[C@@H]1CCCN1C(=O)[C@H](CCCCN)NC(=O)[C@@H]1CCCN1C(=O)[C@@H](N)CCCN=C(N)N)C(N)=O please. 6.35

Which measured pIC50 belongs to CSCC[C@H](NC(=O)[C@H](CC(C)C)NC(=O)CNC(=O)[C@H](Cc1ccccc1)NC(=O)/C(=C/c1ccccc1)NC(=O)[C@H](CCC(N)=O)NC(=O)[C@H](CCC(N)=O)NC(=O)[C@@H]1CCCN1C(=O)[C@H](CCCCN)NC(=O)[C@@H]1CCCN1C(=O)[C@@H](N)CCCN=C(N)N)C(N)=O , tested on Substance-K receptor (Rattus norvegicus, UniProt P16610)? 5.31

For the record CSCC[C@H](NC(=O)[C@H](CC(C)C)NC(=O)CNC(=O)[C@@H](NC(=O)[C@H](Cc1ccccc1)NC(=O)[C@H](CCC(N)=O)NC(=O)[C@H](CCC(N)=O)NC(=O)[C@@H]1CCCN1C(=O)[C@H](CCCCN)NC(=O)[C@@H]1CCCN1C(=O)[C@@H](N)CCCN=C(N)N)C(C)(C)S(C)(=O)=O)C(N)=O , what value of pIC50 is listed for Substance-K receptor (Rattus norvegicus, UniProt P16610)? 6.80

Record CSCC[C@H](NC(=O)[C@H](CC(C)C)NC(=O)CNC(=O)[C@@H](NC(=O)[C@@H](NC(=O)[C@H](CCC(N)=O)NC(=O)[C@H](CCC(N)=O)NC(=O)[C@@H]1CCCN1C(=O)[C@H](CCCCN)NC(=O)[C@@H]1CCCN1C(=O)[C@@H](N)CCCN=C(N)N)C1CCc2ccccc21)C1c2ccccc2-c2ccccc21)C(N)=O (some centres not stated) (H-RPKPQQ[X1][Gly(9-fluorenyl)]GLM-NH2) : what is its pIC50 with Substance-K receptor (Rattus norvegicus, UniProt P16610)? 6.96

Find the measured pIC50: item CSCC[C@H](NC(=O)[C@H](CC(C)C)NC(=O)CNC(=O)[C@H](Cc1ccccc1)NC(=O)[C@@H](NC(=O)[C@H](CCC(N)=O)NC(=O)[C@H](CCC(N)=O)NC(=O)[C@@H]1CCCN1C(=O)[C@H](CCCCN)NC(=O)[C@@H]1CCCN1C(=O)[C@@H](N)CCCN=C(N)N)[C@H]1CCc2ccccc21)C(N)=O , target or system Substance-K receptor (Rattus norvegicus, UniProt P16610). 6.42

Field: pIC50 (Substance-K receptor (Rattus norvegicus, UniProt P16610)). Entry: CSCC[C@H](NC(=O)[C@H](CC(C)C)NC(=O)CNC(=O)[C@H](Cc1ccccc1)NC(=O)[C@@H](NC(=O)[C@H](CCC(N)=O)NC(=O)[C@H](CCC(N)=O)NC(=O)[C@@H]1CCCN1C(=O)[C@H](CCCCN)NC(=O)[C@@H]1CCCN1C(=O)[C@@H](N)CCCN=C(N)N)C1c2ccccc2-c2ccccc21)C(N)=O 6.16

What measured pIC50 is associated with CSCC[C@H](NC(=O)[C@H](CC(C)C)NC(=O)[C@@H]1CCCN1C(=O)[C@@H](NC(=O)[C@H](Cc1ccccc1)NC(=O)[C@H](CCC(N)=O)NC(=O)[C@H](CCC(N)=O)NC(=O)[C@@H]1CCCN1C(=O)[C@H](CCCCN)NC(=O)[C@@H]1CCCN1C(=O)[C@@H](N)CCCN=C(N)N)C1c2ccccc2-c2ccccc21)C(N)=O (H-RPKPQQF[Gly(9-fluorenyl)]PLM-NH2) on Substance-K receptor (Rattus norvegicus, UniProt P16610)? 5.89
